pKa reference
- assay notes: Dissociation constant, pKa of compound
- Format: physicochemical
I only need the number, thanks.

Answered examples (2):
{"compound": "C[C@@H]1CN(Cc2ccccc2)c2cncc(F)c2[C@H](C)N1C(=O)NCc1ccccc1 (racemic)", "measured": 4.2}
{"compound": "C[C@@H]1CN(Cc2ccccc2)c2cnccc2[C@H](C)N1C(=O)NCc1ccccc1 (racemic)", "measured": 6.2}

Next, consider the following compound.
Exercise: Can you look up the measured pKa of COc1ccc(CNC(=O)N2[C@H](C)CN(CCC(C)C)c3cnccc3[C@@H]2C)cc1 (racemic) for me?
Key: 6.4

====

- target entity: Voltage-dependent T-type calcium channel subunit alpha-1H (Homo sapiens)
- Sequence (O95180 whole entry): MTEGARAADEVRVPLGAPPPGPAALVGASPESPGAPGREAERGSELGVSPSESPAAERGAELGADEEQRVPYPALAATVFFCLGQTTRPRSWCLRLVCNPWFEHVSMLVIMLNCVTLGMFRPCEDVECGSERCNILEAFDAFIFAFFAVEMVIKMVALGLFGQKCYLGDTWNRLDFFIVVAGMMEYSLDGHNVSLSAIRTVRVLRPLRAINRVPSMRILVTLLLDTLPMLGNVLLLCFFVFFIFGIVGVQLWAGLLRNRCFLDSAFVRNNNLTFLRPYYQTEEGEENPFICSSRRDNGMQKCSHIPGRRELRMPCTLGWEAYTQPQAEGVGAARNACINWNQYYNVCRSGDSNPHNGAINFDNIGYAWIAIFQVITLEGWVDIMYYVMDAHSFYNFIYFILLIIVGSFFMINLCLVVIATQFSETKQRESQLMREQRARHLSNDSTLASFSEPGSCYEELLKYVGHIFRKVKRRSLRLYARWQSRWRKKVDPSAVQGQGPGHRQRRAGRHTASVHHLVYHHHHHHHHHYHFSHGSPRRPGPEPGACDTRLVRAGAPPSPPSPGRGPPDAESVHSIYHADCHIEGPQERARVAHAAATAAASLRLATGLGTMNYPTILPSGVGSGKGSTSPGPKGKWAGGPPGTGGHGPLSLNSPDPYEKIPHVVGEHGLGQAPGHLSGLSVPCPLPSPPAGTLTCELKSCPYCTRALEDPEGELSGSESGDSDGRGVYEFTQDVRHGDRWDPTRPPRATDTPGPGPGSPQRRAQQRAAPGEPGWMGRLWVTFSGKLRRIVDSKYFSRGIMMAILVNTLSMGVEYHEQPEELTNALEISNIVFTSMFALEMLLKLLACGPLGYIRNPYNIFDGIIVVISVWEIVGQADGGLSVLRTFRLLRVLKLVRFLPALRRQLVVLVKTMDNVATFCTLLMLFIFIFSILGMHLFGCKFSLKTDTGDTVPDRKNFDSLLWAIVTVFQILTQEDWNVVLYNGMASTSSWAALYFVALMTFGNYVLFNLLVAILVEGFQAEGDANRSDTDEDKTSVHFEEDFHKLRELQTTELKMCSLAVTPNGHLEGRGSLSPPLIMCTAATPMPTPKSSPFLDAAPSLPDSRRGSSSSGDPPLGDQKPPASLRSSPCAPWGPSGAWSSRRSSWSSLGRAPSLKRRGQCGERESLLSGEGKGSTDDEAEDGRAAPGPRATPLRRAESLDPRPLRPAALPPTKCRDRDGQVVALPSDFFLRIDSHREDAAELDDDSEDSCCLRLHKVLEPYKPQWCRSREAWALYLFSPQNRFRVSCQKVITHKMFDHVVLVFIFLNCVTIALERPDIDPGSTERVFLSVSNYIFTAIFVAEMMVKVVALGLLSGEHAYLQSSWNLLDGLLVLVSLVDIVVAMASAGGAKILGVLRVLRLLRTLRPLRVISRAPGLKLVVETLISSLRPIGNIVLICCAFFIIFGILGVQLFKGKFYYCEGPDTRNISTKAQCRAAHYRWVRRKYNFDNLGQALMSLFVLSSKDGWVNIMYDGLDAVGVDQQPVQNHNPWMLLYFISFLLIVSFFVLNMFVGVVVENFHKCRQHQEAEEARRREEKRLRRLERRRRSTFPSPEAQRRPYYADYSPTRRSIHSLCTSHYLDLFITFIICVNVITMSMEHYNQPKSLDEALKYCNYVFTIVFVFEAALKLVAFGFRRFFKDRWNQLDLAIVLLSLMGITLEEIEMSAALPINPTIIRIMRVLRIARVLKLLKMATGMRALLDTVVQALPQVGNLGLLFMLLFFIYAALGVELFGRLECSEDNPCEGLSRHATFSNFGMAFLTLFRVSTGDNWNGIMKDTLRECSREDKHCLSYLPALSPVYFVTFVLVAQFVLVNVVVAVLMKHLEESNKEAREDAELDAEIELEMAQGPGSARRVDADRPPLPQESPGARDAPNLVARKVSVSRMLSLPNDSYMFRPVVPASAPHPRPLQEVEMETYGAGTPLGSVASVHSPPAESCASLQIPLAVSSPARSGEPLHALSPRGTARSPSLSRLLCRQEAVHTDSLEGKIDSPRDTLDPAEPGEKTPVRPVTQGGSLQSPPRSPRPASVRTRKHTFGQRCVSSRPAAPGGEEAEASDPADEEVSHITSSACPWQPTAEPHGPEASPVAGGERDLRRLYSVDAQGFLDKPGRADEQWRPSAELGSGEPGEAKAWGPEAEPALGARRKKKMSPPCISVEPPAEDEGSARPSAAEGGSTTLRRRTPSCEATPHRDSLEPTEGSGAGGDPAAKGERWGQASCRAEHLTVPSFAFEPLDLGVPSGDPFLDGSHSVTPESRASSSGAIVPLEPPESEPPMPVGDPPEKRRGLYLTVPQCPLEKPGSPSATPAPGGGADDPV
- assay notes: Channel blocking activity at recombinant human CaV 3.2 channel expressed in HEK293 cells assessed as inhibition of Ca2+ flux preincubated for 3 mins followed by CaCl2 addition by fluo-4 dye-based FLIPR assay
IC50 reference
Field format: number, assumed µM, no unit text.

Answered examples (2):
{"molecule": "CC(C)CCN1C[C@@H](C)N(C(=O)Nc2cccnc2)[C@@H](C)c2ccccc21 (racemic)", "target entity": "Voltage-dependent T-type calcium channel subunit alpha-1H (Homo sapiens)", "value type": "IC50", "measured": 0.091}
{"molecule": "C[C@@H]1CN(Cc2ccccc2)c2nc(Cl)ccc2[C@H](C)N1C(=O)NCc1ccccc1 (racemic)", "target entity": "Voltage-dependent T-type calcium channel subunit alpha-1H (Homo sapiens)", "value type": "IC50", "measured": 0.036}

Exercise: Can you look up the measured IC50 of C[C@@H]1CN(CC2CCCCO2)c2ccccc2[C@H](C)N1C(=O)Nc1cccnc1 (mixture of isomers) for me?
Key: 2.67

Exercise: Can you look up the measured IC50 of C[C@@H]1CN(CCOC(C)(C)C)c2ccccc2[C@H](C)N1C(=O)NCc1ccccc1 (racemic) for me?
Key: 0.044
